- EXPERIMENTAL_DETAILS: Cell viability of B16 melanoma 4A5 cells
- Type: cell-based, murine
- MEASUREMENT_SETUP: mouse, 30 µM, B16 4A5 cells
Label class 1 when viability at 72 h, 30 µM < 70%; otherwise class 0.

Q: Hello, I'm reviewing records and need to know if viability at 72 h, 30 µM of CCCCCCCCCCCCCOC1=C(OCC(O)CO)C(=O)O[C@@H]1[C@@H](O)CO (some centres unmarked) is below 70%. Could you check?
A: class 1

Q: State whether 70% exceeds viability at 72 h, 30 µM recorded for CCCCCCCOC1=C(OCC(O)CO)[C@@H]([C@@H](O)CO)OC1=O (some centres unmarked) [compound 7, 3-O-(2,3-dihydroxypropyl)-2-O-heptyl-AsA] .
A: class 0

Q: Lab note: viability at 72 h, 30 µM threshold 70%. Does this compound come in strictly under it? CCCCCCCCCCOC1=C(OCC(O)CO)[C@@H]([C@@H](O)CO)OC1=O (some centres unmarked) [compound 10, 2-O-decyl-3-O-(2,3-dihydroxypropyl)-AsA]
A: class 0

Q: Just wondering, is viability at 72 h, 30 µM of CCCCCCCCCCCOC1=C(OCC(O)CO)C(=O)O[C@@H]1[C@@H](O)CO (some centres unmarked) below 70%?
A: class 1

Q: Problem: For the compound CCCCCCCCOC1=C(OCC(O)CO)C(=O)O[C@@H]1[C@@H](O)CO (some centres unmarked) [compound 22, 2-O-(2,3-dihydroxypropyl)-3-O-octyl-AsA] , is viability at 72 h, 30 µM under 70%?
A: class 0

Q: Does the reported viability at 72 h, 30 µM of CCCCCCOC1=C(OCC(O)CO)[C@@H]([C@@H](O)CO)OC1=O (some centres unmarked) [compound 6, 3-O-(2,3-dihydroxypropyl)-2-O-hexyl-AsA] stay below 70%?
A: class 0

Q: Bench note: check whether CCCCCCCCCOC1=C(OCC(O)CO)[C@@H]([C@@H](O)CO)OC1=O (some centres unmarked) [compound 9, 3-O-(2,3-dihydroxypropyl)-2-O-nonyl-AsA] shows viability at 72 h, 30 µM below 70%
A: class 0

Q: Lab log: compare recorded viability at 72 h, 30 µM with 70%; is it strictly lower for CCCCCCCCCCCCOC1=C(OCC(O)CO)C(=O)O[C@@H]1[C@@H](O)CO (some centres unmarked) ?
A: class 1

Q: Determine if CCCCCCCOC1=C(OCC(O)CO)C(=O)O[C@@H]1[C@@H](O)CO (some centres unmarked) [compound 21, 2-O-(2,3-dihydroxypropyl)-3-O-heptyl-AsA] shows viability at 72 h, 30 µM strictly lower than 70%.
A: class 0

Q: Just wondering, is viability at 72 h, 30 µM of CCCCCCCCCCCCCCOC1=C(OCC(O)CO)[C@@H]([C@@H](O)CO)OC1=O (some centres unmarked) below 70%?
A: class 1

Q: Please let me know if CCCCCCCCCCCCCCOC1=C(OCC(O)CO)C(=O)O[C@@H]1[C@@H](O)CO (some centres unmarked) shows viability at 72 h, 30 µM below 70%.
A: class 1

Q: Lab log: compare recorded viability at 72 h, 30 µM with 70%; is it strictly lower for CCCCCCCCCOC1=C(OCC(O)CO)C(=O)O[C@@H]1[C@@H](O)CO (some centres unmarked) [compound 23, 2-O-(2,3-dihydroxypropyl)-3-O-nonyl-AsA] ?
A: class 0

---

- EXPERIMENTAL_DETAILS: Cell viability of B16 melanoma 4A5 cells
- Format: cell-based, murine
- MEASUREMENT_SETUP: mouse, 300 µM, B16 4A5 cells
QUANTITY: viability at 72 h, 300 µM (%)
The reply should be a number in %, with the unit left off.

Please fill in: viability at 72 h, 300 µM reported for CCCOC1=C(OCC(O)CO)C(=O)O[C@@H]1[C@@H](O)CO (stereo partly drawn) [compound 17, 2-O-(2,3-dihydroxypropyl)-3-O-propyl-AsA] = 95.6

Recorded viability at 72 h, 300 µM (molecule CCOC1=C(OCC(O)CO)[C@@H]([C@@H](O)CO)OC1=O (stereo partly drawn) [compound 2, 3-O-(2,3-dihydroxypropyl)-2-O-ethyl-AsA] ): 99.7

Lab note: measured viability at 72 h, 300 µM of CCOC1=C(OCC(O)CO)C(=O)O[C@@H]1[C@@H](O)CO (stereo partly drawn) [compound 16, 2-O-(2,3-dihydroxypropyl)-3-O-ethyl-AsA] was 95.9

---

- EXPERIMENTAL_DETAILS: Cell viability of B16 melanoma 4A5 cells
- Format: cell-based, murine
- MEASUREMENT_SETUP: mouse, 300 µM, B16 4A5 cells
Hi there, I'd appreciate the recorded viability at 72 h, 300 µM for every entry that follows.
Provide the reading as a plain figure in %.

molecule O=C1O[C@H]([C@@H](O)CO)C(O)=C1OCC(O)CO (stereo partly drawn) [compound 15, 2-O-(2,3-dihydroxypropyl)-AsA] , viability at 72 h, 300 µM observed: 102

// viability at 72 h, 300 µM lookup, molecule = CCCCOC1=C(OCC(O)CO)[C@@H]([C@@H](O)CO)OC1=O (stereo partly drawn) [compound 4, 2-O-butyl-3-O-(2,3-dihydroxypropyl)-AsA] , result: 97.4

Lab note: measured viability at 72 h, 300 µM of CCCOC1=C(OCC(O)CO)[C@@H]([C@@H](O)CO)OC1=O (stereo partly drawn) [compound 3, 3-O-(2,3-dihydroxypropyl)-2-O-propyl-AsA] was 98.2

---

Please respond with reported viability at 72 h, 300 µM for every item in the list.
- EXPERIMENTAL_DETAILS: Cell viability of B16 melanoma 4A5 cells
- Format: cell-based, murine
- MEASUREMENT_SETUP: mouse, 300 µM, B16 4A5 cells
Provide only the numeric value, understood in %.

For this compound ( CCCCCCOC1=C(OCC(O)CO)C(=O)O[C@@H]1[C@@H](O)CO (stereo partly shown) [compound 20, 2-O-(2,3-dihydroxypropyl)-3-O-hexyl-AsA] ), measured viability at 72 h, 300 µM is 83.9

Reported viability at 72 h, 300 µM of OC[C@H]1O[C@@H](Oc2ccc(O)cc2)[C@H](O)[C@@H](O)[C@@H]1O [Arbutin, reference compound] : 96

Sample O=C1O[C@H]([C@H](O)CO)C(O)=C1O [Erythrobic acid, reference compound] ; viability at 72 h, 300 µM observed: 94.8

// CCCCOC1=C(OCC(O)CO)C(=O)O[C@@H]1[C@@H](O)CO (stereo partly shown) [compound 18, 3-O-butyl-2-O-(2,3-dihydroxypropyl)-AsA] : viability at 72 h, 300 µM value = 89.1

Note to self: viability at 72 h, 300 µM recorded for CCCCCOC1=C(OCC(O)CO)[C@@H]([C@@H](O)CO)OC1=O (stereo partly shown) [compound 5, 3-O-(2,3-dihydroxypropyl)-2-O-pentyl-AsA] was 107

The compound O=C1O[C@H]([C@@H](O)CO)C(OCC(O)CO)=C1O (stereo partly shown) [compound 1, 3-O-(2,3-dihydroxypropyl)-AsA] showed viability at 72 h, 300 µM equal to 96.8

Reported viability at 72 h, 300 µM ( CCCCCOC1=C(OCC(O)CO)C(=O)O[C@@H]1[C@@H](O)CO (stereo partly shown) [compound 19, 2-O-(2,3-dihydroxypropyl)-3-O-pentyl-AsA] ) = 73.4

---

- System: tyrosinase from mushroom
- EXPERIMENTAL_DETAILS: Mushroom tyrosinase activity
- Type: biochemical
- MEASUREMENT_SETUP: Substrate: L-DOPA, 30 µM
QUANTITY: Inhibition (%) of mushroom tyrosinase
Kindly provide the numeric value in % only, without the unit symbol.

Per the record, CCCCCCCCCCCCOC1=C(OCC(O)CO)C(=O)O[C@@H]1[C@@H](O)CO (stereo partly shown) has Inhibition (%) of mushroom tyrosinase of −6.6

According to the records, this compound CCCCCCCCCCCCOC1=C(OCC(O)CO)[C@@H]([C@@H](O)CO)OC1=O (stereo partly shown) displays Inhibition (%) of mushroom tyrosinase of −4.6

Form: compound = CCCCCCCCCCCCCCOC1=C(OCC(O)CO)[C@@H]([C@@H](O)CO)OC1=O (stereo partly shown) ; Inhibition (%) of mushroom tyrosinase = −8.2

// recorded Inhibition (%) of mushroom tyrosinase for CCCCCCCOC1=C(OCC(O)CO)[C@@H]([C@@H](O)CO)OC1=O (stereo partly shown) [compound 7, 3-O-(2,3-dihydroxypropyl)-2-O-heptyl-AsA] : −0.7

// Inhibition (%) of mushroom tyrosinase value for CCCCCCCCCOC1=C(OCC(O)CO)C(=O)O[C@@H]1[C@@H](O)CO (stereo partly shown) [compound 23, 2-O-(2,3-dihydroxypropyl)-3-O-nonyl-AsA] : −4.1

// sample CCCCCCCCCCCCCOC1=C(OCC(O)CO)C(=O)O[C@@H]1[C@@H](O)CO (stereo partly shown) , its Inhibition (%) of mushroom tyrosinase was −3.2

So, CCCCCCCCCCCOC1=C(OCC(O)CO)[C@@H]([C@@H](O)CO)OC1=O (stereo partly shown) ? Its Inhibition (%) of mushroom tyrosinase was −5.1
